# STUDY TARGET: UniProt P51684
# Sequence (P51684 whole entry): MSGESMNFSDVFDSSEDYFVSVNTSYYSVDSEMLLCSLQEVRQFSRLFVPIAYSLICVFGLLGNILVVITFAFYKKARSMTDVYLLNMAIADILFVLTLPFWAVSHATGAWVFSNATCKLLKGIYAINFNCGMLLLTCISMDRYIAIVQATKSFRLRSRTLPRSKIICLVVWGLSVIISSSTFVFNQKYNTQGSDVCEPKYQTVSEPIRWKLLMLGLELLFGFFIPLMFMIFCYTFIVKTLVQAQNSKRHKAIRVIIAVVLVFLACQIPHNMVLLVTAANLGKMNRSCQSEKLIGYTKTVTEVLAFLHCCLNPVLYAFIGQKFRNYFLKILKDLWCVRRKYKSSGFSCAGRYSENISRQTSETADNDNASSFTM
# TEST METHOD NOTES: Migration (chemotaxis) assay, hCCR6-transfected Ba/F3 cells toward CCL20
# CONDITION DETAILS: hCCR6-transfected Ba/F3 cells in human serum; recombinant human CCL20 10 nM; 37° C. 45 minutes; read-out: Potency (IC50 value in the migration assay)
pIC50: −log10 of the molar value.
Catalogue of compounds with associated pIC50

COMPOUND	pIC50
O=S(=O)(c1ccc(-c2ccc3c(c2)C2(CCOCC2)CN3)cc1)N1CCC(Nc2ccc(C(F)(F)F)cn2)CC1 [Example 1.034]	7.00 to 8.30
Cn1nc(C(N)=O)c2cc(-c3ccc(S(=O)(=O)N4CCC(Nc5ccc(C(F)(F)F)cn5)CC4)cc3)ccc21 [Example 1.090]	> 8.30

We now examine a further compound.
Kindly indicate its recorded pIC50. Item: O=C1Cc2ccc(-c3ccc(S(=O)(=O)N4CCC(Nc5ccc(C(F)(F)F)cn5)CC4)cc3)cc2CN1 [Example 1.007]
7.00 to 8.30
